Entry source: patent US8927507B2

system under test: O-GlcNAcase (Rattus norvegicus (Rat), UniProt Q8VIJ5)
Sequence (Q8VIJ5 whole entry): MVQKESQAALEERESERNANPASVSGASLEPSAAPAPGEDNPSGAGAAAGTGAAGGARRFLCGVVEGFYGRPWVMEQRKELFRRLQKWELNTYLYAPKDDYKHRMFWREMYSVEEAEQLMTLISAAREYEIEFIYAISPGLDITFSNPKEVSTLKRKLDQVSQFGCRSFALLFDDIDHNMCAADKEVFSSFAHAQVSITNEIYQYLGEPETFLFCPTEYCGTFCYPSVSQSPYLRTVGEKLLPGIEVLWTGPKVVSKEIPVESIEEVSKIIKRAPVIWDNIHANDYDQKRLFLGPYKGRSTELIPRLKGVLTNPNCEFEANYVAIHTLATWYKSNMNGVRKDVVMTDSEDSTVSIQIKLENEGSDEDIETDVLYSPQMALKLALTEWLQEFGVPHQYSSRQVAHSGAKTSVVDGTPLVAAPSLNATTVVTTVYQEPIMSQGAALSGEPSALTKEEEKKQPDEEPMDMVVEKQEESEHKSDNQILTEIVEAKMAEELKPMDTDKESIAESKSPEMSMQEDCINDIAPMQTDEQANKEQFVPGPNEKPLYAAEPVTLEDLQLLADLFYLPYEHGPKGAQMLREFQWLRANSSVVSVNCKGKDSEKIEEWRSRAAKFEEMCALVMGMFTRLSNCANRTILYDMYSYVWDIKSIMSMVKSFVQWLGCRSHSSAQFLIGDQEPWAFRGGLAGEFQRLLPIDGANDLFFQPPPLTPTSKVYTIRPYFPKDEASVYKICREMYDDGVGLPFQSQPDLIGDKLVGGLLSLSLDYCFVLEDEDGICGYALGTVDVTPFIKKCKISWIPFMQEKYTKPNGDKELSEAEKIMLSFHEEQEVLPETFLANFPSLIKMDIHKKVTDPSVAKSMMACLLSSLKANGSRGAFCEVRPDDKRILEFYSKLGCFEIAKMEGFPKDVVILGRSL
assay info: Cell-based ELISA of O-GlcNAcylated protein (RL-2 antibody) in PC-12 cells
condition: rat PC-12 cells, 24 h treatment, O-GlcNAcylated protein detected with RL-2 antibody
Reported EC50 values for a set of compounds
Give a bare numeral; the unit nM is implied.

CCCN(C)C1=N[C@@H]2[C@@H](O)[C@H](O)[C@@H](CO)O[C@@H]2S1: 196

Lookup: # return recorded EC50 for entry C=CCN(C)C1=N[C@@H]2[C@@H](O)[C@H](O)[C@@H](CO)O[C@@H]2S1
Found: 152

* * *

system under test: human O-GlcNAcase (Homo sapiens (Human))
Sequence (O60502 whole entry): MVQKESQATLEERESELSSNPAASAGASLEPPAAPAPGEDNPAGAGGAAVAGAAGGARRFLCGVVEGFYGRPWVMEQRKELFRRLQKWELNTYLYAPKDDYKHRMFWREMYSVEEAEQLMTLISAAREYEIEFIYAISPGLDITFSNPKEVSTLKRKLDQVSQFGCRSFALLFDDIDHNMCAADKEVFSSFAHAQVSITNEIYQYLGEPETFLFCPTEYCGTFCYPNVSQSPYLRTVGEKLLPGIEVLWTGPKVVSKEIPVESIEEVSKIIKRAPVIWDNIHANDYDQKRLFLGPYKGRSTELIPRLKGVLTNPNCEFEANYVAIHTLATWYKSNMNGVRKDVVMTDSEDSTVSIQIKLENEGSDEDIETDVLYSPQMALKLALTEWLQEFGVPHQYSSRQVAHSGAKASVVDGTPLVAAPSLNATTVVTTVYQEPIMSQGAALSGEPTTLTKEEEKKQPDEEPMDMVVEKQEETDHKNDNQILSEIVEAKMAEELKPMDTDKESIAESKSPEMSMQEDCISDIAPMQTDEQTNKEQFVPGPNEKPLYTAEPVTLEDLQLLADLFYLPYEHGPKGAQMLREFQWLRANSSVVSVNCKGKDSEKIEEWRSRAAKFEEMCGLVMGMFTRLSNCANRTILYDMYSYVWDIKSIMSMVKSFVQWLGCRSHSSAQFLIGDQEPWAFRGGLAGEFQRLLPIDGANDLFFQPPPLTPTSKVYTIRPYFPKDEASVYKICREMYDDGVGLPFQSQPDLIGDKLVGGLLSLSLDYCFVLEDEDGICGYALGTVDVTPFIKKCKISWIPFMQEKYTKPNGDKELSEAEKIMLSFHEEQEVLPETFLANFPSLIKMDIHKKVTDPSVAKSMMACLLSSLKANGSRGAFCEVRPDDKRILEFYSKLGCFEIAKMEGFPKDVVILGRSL
Recorded Ki, one value per entry.
Note: unit nM is implicit; provide only the numeric part.

Solved entries (count: 3):
CCC(=O)NC1=N[C@@H]2[C@@H](O)[C@H](O)[C@@H](CO)O[C@@H]2S1: 74
OC[C@H]1O[C@@H]2SC(NCCCF)=N[C@@H]2[C@@H](O)[C@@H]1O: 15
CON(C)C1=N[C@@H]2[C@@H](O)[C@H](O)[C@@H](CO)O[C@@H]2S1: 11

Lookup: Provide one value: measured Ki of C=CCN(C)C1=N[C@@H]2[C@@H](O)[C@H](O)[C@@H](CO)O[C@@H]2S1
Found: 2.8
